The measured values listed here are drawn from patent US20230192890A1.

# measurement target: T1, Ala mutant SEQ ID NO: 40 (human)
# T1 sequence (peptide): EENMDDQWMQDEMAIGY
# protocol summary: ELISA, peptide on plate (10 ug/mL)
Measured absorbance 490 nm/630 nm, listed per entry for reference.
The answer is to be given in OD; state only the numeric part.

>  <binder>
G9 (antibody, IgG1, V domains shown) VH: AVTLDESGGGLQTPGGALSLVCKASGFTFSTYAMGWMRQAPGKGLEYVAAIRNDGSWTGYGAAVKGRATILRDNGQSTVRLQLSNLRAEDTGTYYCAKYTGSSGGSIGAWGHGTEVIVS VL: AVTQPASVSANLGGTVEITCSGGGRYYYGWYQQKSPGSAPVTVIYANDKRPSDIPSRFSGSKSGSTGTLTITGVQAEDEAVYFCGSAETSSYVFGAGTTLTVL

>  <absorbance 490 nm/630 nm [OD]>
1.88

$$$$
>  <binder>
E9 (antibody, IgG1, V domains shown) VH: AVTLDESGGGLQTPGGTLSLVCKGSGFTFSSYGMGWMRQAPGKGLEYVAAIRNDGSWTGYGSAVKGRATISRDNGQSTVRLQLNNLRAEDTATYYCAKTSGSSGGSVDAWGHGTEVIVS VL: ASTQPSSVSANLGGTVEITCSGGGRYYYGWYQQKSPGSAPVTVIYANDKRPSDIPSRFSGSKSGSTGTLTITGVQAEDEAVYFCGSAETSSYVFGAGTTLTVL

>  <absorbance 490 nm/630 nm [OD]>
1.82

$$$$

We next turn to a different binder, shown below.
Q) Can you share its absorbance 490 nm/630 nm? I mean this binder: G6 (antibody, IgG1, V domains shown) VH: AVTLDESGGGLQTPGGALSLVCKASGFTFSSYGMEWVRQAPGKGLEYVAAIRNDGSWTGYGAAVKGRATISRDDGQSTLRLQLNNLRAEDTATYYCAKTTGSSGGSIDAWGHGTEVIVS VL: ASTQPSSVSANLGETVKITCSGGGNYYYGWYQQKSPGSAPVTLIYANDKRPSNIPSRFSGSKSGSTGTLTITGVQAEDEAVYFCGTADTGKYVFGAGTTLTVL
A) 1.86
